# Lookup of reported fluorescence, percent of control (lower = inhibition) keyed by entry
EXPERIMENTAL_SYSTEM: Cell division control protein 42 homolog (Homo sapiens)
EXPERIMENT_NOTES: inhibition of fluorescent GTP binding to wildtype Cdc42 – biochemical, multiplex bead flow cytometry, Bodipy-FL-GTP, dose response (AID 1334)
SETUP_CONDITIONS: bead-based flow cytometry, Bodipy-FL-GTP binding to GST-Cdc42; at 100 µM (top of the series) unless noted
Results with a measured potency or affinity are listed apart.
Form entry: value (%) — number only.

Use these answered entries as a reference point.
Look at this compound and give its reported fluorescence, percent of control (lower = inhibition). Cc1ccc(-n2nc3c(SCCN4CCOCC4)nnc(C)c3c2C)cc1
49

Entry to check: Cc1cc(N=NC(=O)c2ccccc2O)c2ccccc2c1O
36.1

Entry to check: CCOC(=O)N1CCC(NC(=O)c2ccc3nc4ccccc4c(=O)n3c2)CC1
97.6

Entry to check: COc1ccc(-c2cc(-c3ccc(O)cc3)nc(N)c2C#N)cc1OC
32.2

Entry to check: O=C(N/N=C/c1ccco1)c1ccc(C(=O)N/N=C/c2ccco2)o1
32.1

Entry to check: CS(=O)(=O)Nc1ccc(Br)cc1C(=O)c1ccccc1
46.4

Continuing:
Look at this compound and give its reported fluorescence, percent of control (lower = inhibition). O=C(Nc1ccccc1F)c1ccccc1-c1ccccc1
47.5

Entry to check: O=C(Nc1ccc(N2CCOCC2)c(Cl)c1)c1ncn[nH]1
104

Entry to check: CCOC(=O)Cc1csc(NC(=O)CSc2nc(-c3ccccc3)c(C#N)c(=O)[nH]2)n1
29.4

Entry to check: COc1cccc(C2CC(c3ccccc3)=NN2S(=O)(=O)c2ccc(C)cc2)c1OC (configuration not stated)
93.3

Entry to check: O=S(=O)(Cc1ccccc1)c1ccccc1-c1nnc(-c2ccccc2)o1
89.9

Entry to check: COc1ccc(-c2nn(-c3ccccc3)cc2C(=O)NCCCn2ccnc2)cc1
49.1

Entry to check: COc1cc2[nH]c(=S)nc(NCc3ccccn3)c2cc1OC
31.9

Entry to check: O=C(C#Cc1ccc(F)cc1)c1ccc([N+](=O)[O-])cc1
39.2

Entry to check: Cc1no[n+]([O-])c1COc1cccc(/C=C2\N=C(c3ccccc3)OC2=O)c1
46.6

Entry to check: CN(C)c1ccc([C@@H]2[C@@H]([N+](=O)[O-])[C@H]3C=Cc4ccccc4N3[C@H]2C(=O)c2ccc(Cl)cc2)cc1
46.5

Entry to check: COC(=O)c1ccc2nc(Nc3nc4c(F)cc(F)cc4s3)sc2c1
33.7

###

EXPERIMENT_NOTES: TOR pathway RTG branch CIT2 reporter changes – S. cerevisiae, GFP fusion, multiplex flow cytometry, primary screen (AID 1870);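 also: barcoded CIT2-GFP strain pooled with four other GFP strains with rapamycin as positive control; median GFP fluorescence per well over plate mean of DMSO wells so 100% = DMSO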
SETUP_CONDITIONS: S. cerevisiae CIT2-GFP expression, 3 h, at 10 µM, stronger effect = higher value
ASSAY_READOUT: percent response of DMSO control (%)
Form entry: value (%) — number only.

Use these answered entries as a reference point.
Look at this compound and give its reported percent response of DMSO control. CN1CCN(CCCN2c3ccccc3Sc3ccc(Cl)cc32)CC1
97

Entry to check: COc1ccc(C2C3CCCCC3(O)CCN2C(=O)c2cccs2)cc1 (configuration not stated)
97

Entry to check: CS(=O)(=O)Nc1ccc([N+](=O)[O-])cc1Oc1ccccc1
96.4

Entry to check: NC(=O)C1CCCNC1 (configuration not stated)
109

Entry to check: O=C(NCCNc1ccc(Cl)cc1[N+](=O)[O-])c1cccnc1
102

Continuing:
Look at this compound and give its reported percent response of DMSO control. CCOC(=O)c1ncn2c1CN(C)C(=O)c1cc(F)ccc1-2
96.5

Entry to check: COc1ccc(CCN=CC2=C(O)CC(C)(C)CC2=O)cc1
106

Entry to check: CSCC[C@H](NC(=O)OC(C)(C)C)C(=O)N1CCC(C(=O)N[C@@H](C)C(=O)O)CC1
102

Entry to check: O=C(O)c1cc2cc(F)ccc2[nH]1
105

Entry to check: CSCCC(NC(C)=O)C(=O)Oc1ccc2c3c(c(=O)oc2c1)CCCC3 (configuration not stated)
105

Entry to check: CCCC(=O)O[C@]1(C(=O)COC(C)=O)CC[C@H]2[C@@H]3C[C@H](F)C4=CC(=O)C=C[C@]4(C)[C@@]3(F)[C@@H](O)C[C@@]21C
109

Entry to check: CCCN(CCC)C(=O)C(CCC(=O)O)NC(=O)c1ccccc1 (configuration not stated)
95.4

###

EXPERIMENTAL_SYSTEM: ATP-binding cassette sub-family B member 6 (Homo sapiens) (UniProt Q9NP58)
Sequence (Q9NP58 whole entry, looked up): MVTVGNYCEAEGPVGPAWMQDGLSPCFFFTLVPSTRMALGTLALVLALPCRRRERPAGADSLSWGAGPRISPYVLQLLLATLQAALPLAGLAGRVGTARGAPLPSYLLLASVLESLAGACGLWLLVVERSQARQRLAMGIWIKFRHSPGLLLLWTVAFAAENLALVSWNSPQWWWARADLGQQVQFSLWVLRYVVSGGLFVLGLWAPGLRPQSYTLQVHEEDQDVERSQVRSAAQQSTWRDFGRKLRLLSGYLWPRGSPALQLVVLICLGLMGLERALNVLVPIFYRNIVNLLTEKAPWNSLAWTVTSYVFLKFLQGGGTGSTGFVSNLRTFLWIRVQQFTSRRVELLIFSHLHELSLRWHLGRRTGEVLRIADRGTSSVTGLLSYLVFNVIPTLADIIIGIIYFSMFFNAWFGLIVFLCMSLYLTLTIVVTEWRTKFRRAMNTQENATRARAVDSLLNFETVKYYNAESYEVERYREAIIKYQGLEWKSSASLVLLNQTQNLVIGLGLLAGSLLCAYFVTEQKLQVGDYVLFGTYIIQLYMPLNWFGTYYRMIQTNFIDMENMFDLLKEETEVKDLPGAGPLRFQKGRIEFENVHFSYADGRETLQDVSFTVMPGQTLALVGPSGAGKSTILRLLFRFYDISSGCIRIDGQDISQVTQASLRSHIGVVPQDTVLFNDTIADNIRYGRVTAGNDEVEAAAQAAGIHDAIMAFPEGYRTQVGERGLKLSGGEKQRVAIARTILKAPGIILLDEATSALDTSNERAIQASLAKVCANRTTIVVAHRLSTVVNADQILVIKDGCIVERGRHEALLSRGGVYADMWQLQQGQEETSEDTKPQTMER
EXPERIMENT_NOTES: blockers of ABCB6-driven porphyrin uptake – K562-ABCB6 cells, flow cytometry, validation set, pilot screen (AID 588550);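 also: 0% = DMSO wells and 100% = benzethonium chloride 70 µM positive control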
SETUP_CONDITIONS: K562-ABCB6 porphyrin accumulation, 1 h, at 10 µM, stronger effect = higher value
# Lookup of reported inhibition keyed by entry
Form entry: value (%) — number only.

Use these answered entries as a reference point.
Look at this molecule and give its reported inhibition. Cc1ncc(CN2CCC(CO)(CCc3ccccc3)CC2)s1
6

Entry to check: CC(C)C(=O)Nc1cccnc1
-4

Entry to check: NCCCC(N)(C(=O)O)C(F)F (configuration not stated)
-5

Entry to check: Cc1ccsc1/C=C/C1=NCCCN1C
1

Entry to check: CCCCOc1ccc(CC(=O)NO)cc1
9

Entry to check: O=C(O)CCCCCN=C1CCc2ccccc2N1
9

Continuing:
Look at this molecule and give its reported inhibition. O=C(O)C1Cc2ccccc2CN1S(=O)(=O)c1ccccc1 (configuration not stated)
9

###

# Lookup of reported GFP response, % of DMSO keyed by entry
EXPERIMENT_NOTES: yeast AGP1-GFP level changes, GLN3 branch – cell-based, multiplex flow cytometry, S. cerevisiae, primary screen (AID 1887);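 also: AGP1-GFP fusion strain of S. cerevisiae within a five-strain barcoded multiplex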
SETUP_CONDITIONS: 3 h, at 10 µM, stronger effect = higher value
Inconclusive results are not listed.
Form entry: value (%) — number only.

Use these answered entries as a reference point.
Look at this molecule and give its reported GFP response, % of DMSO. CCCCN(CCCC)CCCOC(=O)c1ccc(N)cc1
81.7

Entry to check: O=C(O)CP(=O)(O)O
96.8

Continuing:
Look at this molecule and give its reported GFP response, % of DMSO. CN/C(=C/[N+](=O)[O-])NCCSCc1ccc(CN(C)C)o1
87.7

Entry to check: Fc1ccc(-n2cc(CNCCc3ccccn3)c(-c3ccccc3Cl)n2)cc1
107

Entry to check: CC(=O)N(CCC1(c2ccc(C)cc2)CCOC(C(C)C)C1)Cc1ccco1 (stereo not drawn)
96.6

Entry to check: COc1ccc(C(=O)NCCC2=CCCCC2)cc1[N+](=O)[O-]
106

Entry to check: CC1(C)CC(NC(=O)C23CCC(C)(C(=O)C2=O)C3(C)C)CC(C)(C)N1 (stereo not drawn)
99.2

###

EXPERIMENT_NOTES: TOR pathway LAP4-GFP level changes – S. cerevisiae, multiplex flow cytometry, primary screen (AID 1873)
SETUP_CONDITIONS: S. cerevisiae LAP4-GFP expression, 3 h, at 10 µM
Records with an inconclusive call do not appear. The source made the active and inactive calls.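 Rule for the calls: active = GFP signal, as percent of the solvent control, above the screen mean plus 3 SD, about 149; inconclusive = no reading because the compound's own fluorescence upset strain identification; inactive = the rest.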
Just give me one of these, please: active, inactive

Past entries and their recorded results:
Record request — test call for COc1ccc2[nH]c(CN3CCN(CC(C)C)C(CCO)C3)c(C)c2c1 (stereo not drawn)
inactive

Entry to check: CC(=O)Oc1cc2oc(=O)cc(C)c2cc1OC(C)=O
inactive

Entry to check: COc1ccc(-c2nc3c(=O)n(C)c(=O)[nH]c3n2CCc2ccccc2)cc1
inactive

Entry to check: Cc1cccc(-c2ncc(CN3CCN(CC(C)C)C(CCO)C3)cn2)c1 (stereo not drawn)
inactive

Entry to check: CCOc1ncnc2c1[nH]c1ccccc12
inactive

Continuing:
Record request — test call for Cc1ccc(SCC(=O)Nc2nccs2)cc1
inactive

Entry to check: COc1ccc(C(=O)N2c3cc4c(cc3C(C)=CC2(C)C)OCO4)cc1
inactive

###

EXPERIMENTAL_SYSTEM: GTPase HRas (Homo sapiens) (UniProt P01112)
Sequence (P01112 whole entry, looked up): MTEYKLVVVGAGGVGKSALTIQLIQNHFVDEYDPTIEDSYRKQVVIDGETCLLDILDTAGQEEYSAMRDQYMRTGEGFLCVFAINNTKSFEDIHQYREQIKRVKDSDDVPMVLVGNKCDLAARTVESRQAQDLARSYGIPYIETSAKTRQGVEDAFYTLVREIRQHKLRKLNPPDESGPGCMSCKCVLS
EXPERIMENT_NOTES: Ras wt fluorescent GTP loading blockade – biochemical, wildtype, multiplex bead flow cytometry, dose response (AID 1335)
SETUP_CONDITIONS: bead-based flow cytometry, Bodipy-GTP binding to GST-Ras; at 100 µM (top of the series) unless noted
# Lookup of reported GTP binding, percent of control keyed by entry
Be sure to follow the number with its unit.

Look up GTP binding, percent of control with GTPase HRas (Homo sapiens) (UniProt P01112) for this molecule: N#C/C(=C\c1ccncc1)c1nc2ccccc2[nH]1
81.6%

Entry to check: O=C(O)c1ccc(CSCc2ccccc2)o1
91.5%

Entry to check: CCCCn1c(O)c(N=NC(=O)c2ccccc2NS(=O)(=O)c2cccs2)c2ccccc21
87.8%

Entry to check: Nc1c(S(=O)(=O)c2cccc(Cl)c2)c2nc3ccccc3nc2n1/N=C/c1ccc(O)c(O)c1
91.7%

Entry to check: CCOc1ccc(NC(=S)N=Nc2c(O)[nH]c3ccccc23)cc1
74.3%
